Values from patent US20240270857A1

Biological target: T1, IL-36R naturally expressed on OVCAR8 cells and on normal human epidermal keratinocytes (NHK cells) (human, UniProt Q9HB29 20-575)
T1 sequence (looked up): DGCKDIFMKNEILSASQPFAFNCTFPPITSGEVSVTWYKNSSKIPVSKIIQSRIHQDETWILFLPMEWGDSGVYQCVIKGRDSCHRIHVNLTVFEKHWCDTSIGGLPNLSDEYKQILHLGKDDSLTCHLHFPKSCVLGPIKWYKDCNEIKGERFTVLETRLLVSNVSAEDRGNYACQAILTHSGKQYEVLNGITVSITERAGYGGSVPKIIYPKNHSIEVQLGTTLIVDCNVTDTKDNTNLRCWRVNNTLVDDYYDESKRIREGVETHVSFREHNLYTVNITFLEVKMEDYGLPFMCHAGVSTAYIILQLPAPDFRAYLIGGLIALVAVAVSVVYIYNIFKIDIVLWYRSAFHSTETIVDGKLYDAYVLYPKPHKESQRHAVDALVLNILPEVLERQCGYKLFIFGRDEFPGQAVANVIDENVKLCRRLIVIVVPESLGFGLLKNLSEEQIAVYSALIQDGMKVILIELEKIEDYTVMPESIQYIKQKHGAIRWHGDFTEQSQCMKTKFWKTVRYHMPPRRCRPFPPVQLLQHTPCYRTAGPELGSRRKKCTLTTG
Assay: cell-based or functional assay
QUANTITY_MEASURED: Maximum inhibition rate %; hIL36αβγ; IL-8 production (%)
The response must be a number in % with no trailing unit.

// known answers, use as guide
The reported value for hz84C4-1.3 (antibody, human IgG4 S228P, kappa, V domains shown, Humanized, human IgG4 / kappa) VH: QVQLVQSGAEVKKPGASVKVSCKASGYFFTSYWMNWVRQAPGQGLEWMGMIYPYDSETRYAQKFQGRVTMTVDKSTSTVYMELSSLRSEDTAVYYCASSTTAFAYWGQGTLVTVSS VL: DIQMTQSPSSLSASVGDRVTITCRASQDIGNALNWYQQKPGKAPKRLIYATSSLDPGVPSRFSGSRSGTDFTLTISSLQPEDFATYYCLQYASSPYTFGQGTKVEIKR in terms of Maximum inhibition rate %; hIL36αβγ; IL-8 production is 40.7

The reported value for hz84C4-2.3 (antibody, human IgG4 S228P, kappa, V domains shown, Humanized, human IgG4 / kappa) VH: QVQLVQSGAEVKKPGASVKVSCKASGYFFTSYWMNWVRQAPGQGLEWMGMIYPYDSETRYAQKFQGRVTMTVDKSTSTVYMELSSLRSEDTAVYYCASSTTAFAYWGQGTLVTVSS VL: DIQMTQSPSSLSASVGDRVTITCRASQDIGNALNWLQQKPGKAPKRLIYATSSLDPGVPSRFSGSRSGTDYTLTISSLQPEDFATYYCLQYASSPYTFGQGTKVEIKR in terms of Maximum inhibition rate %; hIL36αβγ; IL-8 production is 33.1

***
The reported value for hz84C4-1.1 (antibody, human IgG4 S228P, kappa, V domains shown, Humanized, human IgG4 / kappa) VH: QVQLVQSGAEVKKPGASVKVSCKASGYFFTSYWMNWVRQAPGQGLEWMGMIHPYDSETRYAQKFQGRVTMTVDKSTSTVYMELSSLRSEDTAVYYCASSTTAFAYWGQGTLVTVSS VL: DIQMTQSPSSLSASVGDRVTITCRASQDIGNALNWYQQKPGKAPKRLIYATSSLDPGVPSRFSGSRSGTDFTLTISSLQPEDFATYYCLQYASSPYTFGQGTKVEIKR in terms of Maximum inhibition rate %; hIL36αβγ; IL-8 production is 93.7
